Reference source for all entries: patent US20210318318A1

system: Kuramochi; experiment: Short-term growth assay (CellTiter-Glo cell viability), kinase inhibitors; format: cell-based, human; settings: drug 1.2 uM
Labelling field: enter Condition met if recorded Kinase inhibition profile of HGSOC cells (growth inhibition, Cell Titer Glo) is less than 0.9. Enter Condition not met if it equals or exceeds that cut-off.

Worked set:
CS(=O)(=O)CCNCc1ccc(-c2ccc3ncnc(Nc4ccc(OCc5cccc(F)c5)c(Cl)c4)c3c2)o1 = Condition not met
Cc1nc(Nc2[nH]nc3c2CN(C(=O)N[C@H](CN(C)C)c2ccccc2)C3(C)C)c2sccc2n1 = Condition met
NC(=O)Nc1sc(-c2ccc(F)cc2)cc1C(N)=O = Condition not met
CNc1ncc2cc(-c3cc(NC(=O)NCCC(C)(C)C)c(F)cc3C)c(C)nc2n1 = Condition met

Asked: Lab note: Kinase inhibition profile of HGSOC cells (growth inhibition, Cell Titer Glo) threshold 0.9. Does this compound come in strictly under it? `CNC(=O)c1ccccc1Nc1cc(Nc2ccc(N3CCOCC3)cc2OC)ncc1C(F)(F)F`
Given back: Condition met

Asked: Lab note: Kinase inhibition profile of HGSOC cells (growth inhibition, Cell Titer Glo) threshold 0.9. Does this compound come in strictly under it? `CCOc1ccn(-c2ccc(F)cc2)c(=O)c1C(=O)Nc1ccc(Oc2ccnc(N)c2Cl)c(F)c1`
Given back: Condition not met

Asked: Lab note: Kinase inhibition profile of HGSOC cells (growth inhibition, Cell Titer Glo) threshold 0.9. Does this compound come in strictly under it? `COc1cc2c(Oc3ccc4[nH]c(C)cc4c3F)ncnc2cc1OCCCN1CCCC1`
Given back: Condition not met
